Reference source for all entries: patent EP0908457B1

# Test system: Cyperus iria
# assay: Preemergence weed control under flooded paddy conditions, CYPIR (Rice Flatsedge); further: meaning of each grade not given here
# Assay type: in vivo
# experimentalConditions: 0.0625 kg/ha; preemergence, flooded paddy; rated three to four weeks after treatment
For each record, write down the corresponding herbicidal effect rating, CYPIR.

Req: Which measured herbicidal effect rating, CYPIR value corresponds to "COC(=O)COc1ccc(C)cc1-c1nsc2ccc(-n3c(=O)cc(C(F)(F)F)n(C)c3=O)cc12" ?
Resp: 9.0

Req: Now the molecule "Cc1noc2cc(F)c(-n3c(=O)cc(C(F)(F)F)n(C)c3=O)cc12"
Resp: 9.0

Req: // same read-out, input: "Cc1nsc2ccc(-n3c(=O)cc(C(F)(F)F)n(C)c3=O)cc12"
Resp: 9.0

Req: Check "Cn1c(C(F)(F)F)cc(=O)n(-c2ccc3snc(-c4ccccc4)c3c2)c1=O" too.
Resp: 9.0

Req: Now the molecule CCc1ccc(OC(C)C(=O)OC)c(-c2nsc3ccc(-n4c(=O)cc(C(F)(F)F)n(C)c4=O)cc23)c1 (stereo not shown)
Resp: 4.0

Req: And "Cc1ccc(O)c(-c2noc3ccc(-n4c(=O)cc(C(F)(F)F)n(C)c4=O)c(Cl)c23)c1" ?
Resp: 0.0

Req: How about "CCc1ccc(OC)c(-c2nsc3ccc(-n4c(=O)cc(C(F)(F)F)n(C)c4=O)cc23)c1" ?
Resp: 9.0

Req: Lookup "COC(=O)COc1ccc(C)cc1-c1nsc2ccc(-n3c(=O)cc(C)n(C)c3=O)cc12"
Resp: 0.0

Req: Consider next the molecule "COc1noc2ccc(-n3c(=O)cc(C(F)(F)F)n(C)c3=O)cc12" in the same way.
Resp: 0.0

Req: Okay, and "COc1ccccc1Oc1noc2ccc(-n3c(=O)cc(C(F)(F)F)n(C)c3=O)cc12" ?
Resp: 0.0
